Values compiled from patent US20190218187A1.

# EXPERIMENT NOTES: LogP by HPLC on reversed phase columns (EEC directive 79/831 Annex V.A8)
# Assay type: physicochemical
# CONDITION NOTES: method [a]: LC-UV, acidic range, 0.1% formic acid in water and acetonitrile as eluent (linear gradient 10% to 95% acetonitrile)
READOUT TYPE: LogP

>>> print(df.to_string())
                                    molecule   measured
 0  N#Cc1cncn1CC(O)(CCc1ccc(Cl)cc1)c1ccc(Cl)cc1F (stereo not drawn)  3.79 ^[a]
 1  CC(C)C(O)(CCc1ccccc1)Cn1cncc1C#N (stereo not drawn)  2.53 ^[a]
 2  N#Cc1cncn1CC(O)(CCc1ccc(F)cc1F)C1(F)CC1 (stereo not drawn)  2.69 ^[a]
 3  OC(CCc1ccc(Cl)cc1)(Cn1cncc1Cl)C1(Cl)CC1 (stereo not drawn)  2.73 ^[a]
 4  CC1(C(O)(CCc2ccc(Cl)cc2)Cn2cncc2C#N)CC1 (stereo not drawn)  3.22 ^[a]
 5  CC1(c2ccc(CCC(O)(Cn3cncc3C#N)C3(Cl)CC3)cc2)CC1 (stereo not drawn)  4.03 ^[a]
 6  CC(C)C(O)(CCc1ccc(Cl)cc1)Cn1cncc1C#N (stereo not drawn)  2.95 ^[a]
 7  N#Cc1cncn1CC(O)(CCc1ccc(OC(F)(F)F)cc1)C1(F)CC1 (stereo not drawn)  3.29 ^[a]
 8  CC1(C(O)(CCc2ccccc2)Cn2cncc2C#N)CC1 (stereo not drawn)  2.80 ^[a]
 9  N#Cc1cncn1CC(O)(CCc1ccc(Cl)nc1)C1(F)CC1 (stereo not drawn)  2.03 ^[a]
10  N#Cc1cncn1CC(O)(CCc1ccc(Cl)cc1F)c1ccc(Cl)cc1 (stereo not drawn)  3.64 ^[a]
11  CC1(c2ccc(CCC(O)(Cn3cncc3C#N)C3(F)CC3)cc2)CC1 (stereo not drawn)  3.55 ^[a]
12  N#Cc1cncn1CC(O)(CCc1ccc(Cl)cc1)C1CCC1 (stereo not drawn)  3.23 ^[a]
13  N#Cc1cncn1CC(O)(CCc1ccc(C(F)(F)F)cc1)C1(Cl)CC1 (stereo not drawn)  3.48 ^[a]
14  N#Cc1cncn1CC(O)(CCc1ccccc1)c1ccc(Cl)cc1F (stereo not drawn)  3.37 ^[a]
15  N#Cc1cncn1CC(O)(CCc1ccc(Cl)cc1F)C1(F)CC1 (stereo not drawn)  3.00 ^[a]
16  N#Cc1cncn1CC(O)(CCc1ccccc1F)C1(F)CC1 (stereo not drawn)  2.56 ^[a]
17  N#Cc1cncn1CC(O)(CCc1ccccc1)CC1CC1 (stereo not drawn)  2.62 ^[a]
18  CC(C)(C)C(O)(CCc1ccc(C(F)(F)F)cc1)Cn1cncc1C#N (stereo not drawn)  3.42 ^[a]
19  Cc1ccc(CCC(O)(Cn2cncc2C#N)C(C)(C)C)cc1 (stereo not drawn)  3.22 ^[a]
20  N#Cc1cncn1CC(O)(CCc1ccc(Cl)cc1F)c1ccc(Cl)cc1F (stereo not drawn)  3.75 ^[a]

---

# EXPERIMENT NOTES: LogP by HPLC on reversed phase columns (EEC directive 79/831 Annex V.A8)
# Format: physicochemical
# CONDITION NOTES: reversed phase HPLC column; method [a]: LC-UV, acidic range, 0.1% formic acid in water and acetonitrile as eluent (linear gradient 10% to 95% acetonitrile)
READOUT TYPE: chromatographic logP

>>> print(df.to_string())
                                   compound  measured
0  N#Cc1cncn1CC(O)(CCc1ccc(Cl)nc1)C1(Cl)CC1 (stereo not shown)      2.39
1  N#Cc1cncn1CC(O)(CCC1Cc2ccccc2O1)C1(F)CC1 (stereo not shown)      2.61
2  CC(C)(C)C(O)(CCc1ccc(Cl)cc1)Cn1cncc1F (stereo not shown)      2.25
3  CC(C)(CC(O)(Cn1cncc1C#N)C1(Cl)CC1)c1ccccc1 (stereo not shown)      3.09

---

# EXPERIMENT NOTES: LogP by HPLC on reversed phase columns (EEC directive 79/831 Annex V.A8)
# Type: physicochemical
# CONDITION NOTES: method [a]: LC-UV, acidic range, 0.1% formic acid in water and acetonitrile as eluent (linear gradient 10% to 95% acetonitrile)
Known LogP of a selection of compounds
READOUT TYPE: LogP

In [3]: df
Out[3]:
                                    compound   measured
 0  CC(C)(C)C(O)(CCc1ccc(Cl)cc1)Cn1cncc1Br (centres unmarked)  2.75 ^[a]
 1  N#Cc1cncn1CC(O)(CCc1ccccc1)C1(Cl)CC1 (centres unmarked)  2.88 ^[a]
 2  N#Cc1cncn1CC(O)(CCc1ccccc1)c1ccccc1 (centres unmarked)  2.74 ^[a]
 3  N#Cc1cncn1CC(O)(CCc1ccc(Cl)cc1)c1ccc(Cl)cc1 (centres unmarked)  3.96 ^[a]
 4  N#Cc1cncn1CC(O)(CCc1ccc(Cl)cc1F)c1ccccc1 (centres unmarked)  3.23 ^[a]
 5  N#Cc1cncn1CC(O)(CCc1ccccc1)C1CC1 (centres unmarked)  2.49 ^[a]
 6  CC(C)(C)C(O)(CCc1ccc(Cl)cc1)Cn1cncc1Cl (centres unmarked)  2.78 ^[a]
 7  N#Cc1cncn1CC(O)(CCc1ccc(F)nc1)C1(F)CC1 (centres unmarked)  1.88 ^[a]
 8  N#Cc1cncn1CC(O)(CCc1ccc(F)nc1)C1(Cl)CC1 (centres unmarked)  2.20 ^[a]
 9  N#Cc1cncn1CC(O)(CCc1ccc(OC(F)(F)F)c(F)c1)C1(Cl)CC1 (centres unmarked)  3.69 ^[a]
10  N#Cc1cncn1CC(O)(CCc1ccc(Cl)cc1)C1CC1 (centres unmarked)  2.90 ^[a]

---

# EXPERIMENT NOTES: LogP by HPLC on reversed phase columns (EEC directive 79/831 Annex V.A8)
# Type: physicochemical
# CONDITION NOTES: method [a]: LC-UV, acidic range, 0.1% formic acid in water and acetonitrile as eluent (linear gradient 10% to 95% acetonitrile)
READOUT TYPE: LogP

In [3]: df
Out[3]:
                                    molecule  readout_type   measured
 0  N#Cc1cncn1CC(O)(CCc1ccc(Cl)cc1F)C1(Cl)CC1 (stereo not drawn)          LogP  3.41 ^[a]
 1  CC(C)(C)C(O)(CCc1ccccc1)Cn1cncc1C#N (stereo not drawn)          LogP  2.90 ^[a]
 2  Cc1ccc(CCC(O)(Cn2cncc2C#N)C2(F)CC2)cc1 (stereo not drawn)          LogP  2.90 ^[a]
 3  CC(C)(C)c1ccc(CCC(O)(Cn2cncc2C#N)C2(F)CC2)cc1 (stereo not drawn)          LogP  3.78 ^[a]
 4  N#Cc1cncn1CC(O)(CCc1ccc(Cl)cc1)C1(F)CC1 (stereo not drawn)          LogP  2.98 ^[a]
 5  CC(C)(C)c1ccc(CCC(O)(Cn2cncc2C#N)C2(Cl)CC2)cc1 (stereo not drawn)          LogP  4.18 ^[a]
 6  N#Cc1cncn1CC(O)(CCc1ccccc1)c1ccc(Cl)cc1 (stereo not drawn)          LogP  3.46 ^[a]
 7  N#Cc1cncn1CC(O)(CCc1ccc(Cl)cc1)CC1CC1 (stereo not drawn)          LogP  3.02 ^[a]
 8  Cc1ccc(CCC(O)(Cn2cncc2C#N)C2(Cl)CC2)cc1 (stereo not drawn)          LogP  3.23 ^[a]
 9  CC(C)(C)C(O)(CCc1ccc(Cl)cc1)Cn1cncc1C=O (stereo not drawn)          LogP  3.02 ^[a]
10  N#Cc1cncn1CC(O)(CCc1ccccc1)C1CCC1 (stereo not drawn)          LogP  2.80 ^[a]
11  N#Cc1cncn1CC(O)(CCc1cccnc1)C1(F)CC1 (stereo not drawn)          LogP  0.53 ^[a]

---

Attribute: chromatographic logP
# EXPERIMENT NOTES: LogP by HPLC on reversed phase columns (EEC directive 79/831 Annex V.A8)
# Assay type: physicochemical
# CONDITION NOTES: reversed phase HPLC column; method [a]: LC-UV, acidic range, 0.1% formic acid in water and acetonitrile as eluent (linear gradient 10% to 95% acetonitrile)
READOUT TYPE: chromatographic logP

In [3]: df
Out[3]:
                                   molecule          readout_type  measured
0  N#Cc1cncn1CC(O)(CCc1ccc(Cl)cc1)C1(Cl)CC1 (centres unmarked)  chromatographic logP      3.42
1  N#Cc1cncn1CC(O)(CCc1ccccc1)C1(F)CC1 (centres unmarked)  chromatographic logP      2.53
2  N#Cc1cncn1CC(O)(CCc1ccc(Cl)cc1)c1ccccc1 (centres unmarked)  chromatographic logP      3.13
3  CC(C)(C)C(O)(CCc1ccc(Cl)cc1)Cn1cncc1C#N (centres unmarked)  chromatographic logP      3.31
4  N#Cc1cncn1CC(O)(CCc1ccc(C(F)(F)F)cc1)C1(F)CC1 (centres unmarked)  chromatographic logP      3.15
